System: Malme-3M
procedure-summary: NCI tumour cell line growth inhibition, 48 h
Active and inactive are the calls of the source. Cut-off read from the data, not from the text of the source: active = GI50 up to about 1.1 µM and inactive = higher.
Listed next: entries and their corresponding GI50.

Example compounds with recorded GI50:
compound	measured-value
CC(C)(C)c1cc(-c2c3nc(c(-c4cc(C(C)(C)C)cc(C(C)(C)C)c4)c4ccc([nH]4)c(-c4cc(C(C)(C)C)cc(C(C)(C)C)c4)c4nc(c(-c5cc(C(C)(C)C)cc(C(C)(C)C)c5)c5ccc2[nH]5)C=C4)C=C3)cc(C(C)(C)C)c1	> 100 µM (inactive)
[N-]=[N+]=NC1OC(=O)C(Cl)=C1N=P(c1ccccc1)(c1ccccc1)c1ccccc1 (centres undefined)	> 10 µM (inactive)
CC(=O)O[C@H]1C#C/C=C\C#CC[C@@H]2C(=O)N[C@@H]12	22.9 µM (inactive)
c1ccc([B-]23Oc4ccccc4[NH+]2c2ccccc2O3)cc1 (centres undefined)	> 100 µM (inactive)
CN(C)CCCNC(=O)c1cc(NC(=O)c2cc(NC(=O)c3cc(NC(=O)CCCn4ccc(CO)c4CO)cn3C)cn2C)cn1C	14.5 µM (inactive)
COc1cc2cc(OC(C)=O)c3cc4c(cc3c2c(OC)c1OC)OCO4	> 100 µM (inactive)
O=C(O)c1cc2ccccc2c(/N=N/c2ccc(S(=O)(=O)O)cc2)c1O	> 100 µM (inactive)
O=C1c2ccc3c4ccccc4n(-c4ccccc4)c3c2C(=O)N1c1ccc(Cl)cc1	> 100 µM (inactive)
C=C1CC23CCC4C(C)(C(=O)O)CCCC4(C)C2CCC1C3 (centres undefined)	94 µM (inactive)
O=C(CCN1CCOCC1)/C(=C/c1ccccc1)c1ccccc1	2.24 µM (inactive)

Qu. Please provide the recorded GI50 for `Nc1nc(Cl)c(N)c(NCC2(CO)CC2)n1` , tested on Malme-3M.
Ans. > 100 µM (inactive)

Qu. Please provide the recorded GI50 for `Cc1c(/C=N/NC(=O)c2ccc(Cl)cc2)c(=O)n(-c2ccccc2)n1C` , tested on Malme-3M.
Ans. > 100 µM (inactive)

Qu. Please provide the recorded GI50 for COc1cc(C2SC(C)C(=O)N2c2ccc(-c3csc(NS(=O)(=O)c4ccc(Cl)c(OC)c4)n3)cc2)ccc1O (centres undefined) , tested on Malme-3M.
Ans. 27.8 µM (inactive)

Qu. Please provide the recorded GI50 for CC(=O)c1c(-c2ccco2)c(C#N)c(=S)n(C2OC(CO)C(O)C(O)C2O)c1-c1ccccc1 (centres undefined) , tested on Malme-3M.
Ans. 63.2 µM (inactive)

Qu. Please provide the recorded GI50 for O=C(Nc1cccc(NC(=O)C(=O)C2CCC3=C(Sc4ccccc4N3)C2=O)n1)C(=O)C1CCC2=C(Sc3ccccc3N2)C1=O (centres undefined) , tested on Malme-3M.
Ans. > 100 µM (inactive)

Qu. Please provide the recorded GI50 for `CN(C)CCNc1nc2ccccc2c2c1CCCC2` , tested on Malme-3M.
Ans. 16.3 µM (inactive)

Qu. Please provide the recorded GI50 for CC(NC(=O)OC(C)(C)C)C(=O)NC1CCCC1 (centres undefined) , tested on Malme-3M.
Ans. > 100 µM (inactive)

Qu. Please provide the recorded GI50 for `CCCCCCCCCCCCCCCCNC(=O)/C(=C\c1ccc(Cl)c(Cl)c1)NC(=O)c1ccccc1` , tested on Malme-3M.
Ans. > 100 µM (inactive)

Qu. Please provide the recorded GI50 for `COc1ccc(CSCc2cc(OC)c(OC)c(OC)c2)cc1` , tested on Malme-3M.
Ans. > 31.6 µM (inactive)

====

Listed next: entries and their corresponding GI50.
System: RXF 393
procedure-summary: NCI tumour cell line growth inhibition, 48 h
Activity calls are given as the source filed them. No stated cut-off is given here; in the data, active = GI50 up to about 1.1 µM and inactive = higher.

Example compounds with recorded GI50:
compound	subject-of-test	measured-value
c1ccc(CCN2CCCCCC2)nc1	RXF 393	> 100 µM (inactive)
CC(=O)C1CC=C(C)CC1 (configuration not stated)	RXF 393	> 100 µM (inactive)
COc1cc(OC)c(/C=C\c2cc(/C=C/c3c(OC)cc(OC)cc3OC)c3ccccc3[n+]2C)c(OC)c1	RXF 393	3.41 µM (inactive)
CC1=C2C(O)C(C(C)C(=O)N(C)C)CCC2(C)C=CC1=O (configuration not stated)	RXF 393	> 100 µM (inactive)
Cc1ccc(C2=C(c3ccccc3)C(O)(c3ccccc3)C(c3ccccc3)=C2c2ccc(C)cc2)cc1	RXF 393	> 100 µM (inactive)

Qu. Look at this compound and give its reported GI50. ON=C1CCC(c2ccccc2)CC1 (configuration not stated)
Ans. > 100 µM (inactive)

Qu. Look at this compound and give its reported GI50. CC(=O)c1c(-c2ccco2)c(C#N)c(=S)n(C2OC(CO)C(O)C(O)C2O)c1-c1ccccc1 (configuration not stated)
Ans. 37 µM (inactive)

Qu. Look at this compound and give its reported GI50. `CN(C)CCNc1nc2ccccc2c2c1CCCC2`
Ans. 8.65 µM (inactive)

Qu. Look at this compound and give its reported GI50. `COc1ccc(-c2cc(O)c3c(C)ccnc3n2)cc1`
Ans. 19.9 µM (inactive)

====

Tested on: Malme-3M
procedure-summary: NCI tumour cell line growth inhibition, 48 h
Active and inactive are the calls of the source. No stated cut-off is given here; in the data, active = GI50 up to about 1.1 µM and inactive = higher.
Please state which outcome applies, choosing from Yes (active), No (inactive)

molecule	group
O=C(O)c1ccc(C2COc3ccc(Cl)cc3C2)cc1 (stereo unspecified)	No
CC(=O)Oc1ccc2c(c1)Oc1cc(C(C)=O)ccc1C21OC(=O)c2ccccc21 (stereo unspecified)	No
Cc1nnc(N)nc1/C=C\c1ccc(Cl)cc1Cl	No
N=C(NC(=S)N1CCCCC1)N1CCCCC1	No
CC(C)C1OC(=O)C(Cc2ccccc2)N(C)C(=O)C(C(C)C)OC(=O)C(Cc2ccccc2)N(C)C(=O)C(C(C)C)OC(=O)C(Cc2ccccc2)N(C)C1=O (stereo unspecified)	Yes
CC(=O)O[C@H]1CSC[C@@H](OC(C)=O)C1[N+](=O)[O-] (stereo partly specified)	No
CC(=O)Nc1ccc2c(c1)C(=O)c1cccc(F)c1-2	No
O=C(/C=C/c1ccc(O)c(O)c1)c1ccc(O)cc1O	No

Qu. Given `C=C(C)C1=CCC[C@]2(C1)N=C(OC)[C@@H](C(C)C)N=C2OC` , state the outcome it received in this test.
Ans. No

Qu. Given `CN(C)S(=O)(=O)n1ccnc1` , state the outcome it received in this test.
Ans. No

Qu. Given `CN(/N=C/C=N/N(C)C1=NCCCN1)C1=NCCCN1` , state the outcome it received in this test.
Ans. No

====

System: HL-60
procedure-summary: NCI tumour cell line growth inhibition, 48 h
Calls of active or inactive are those of the source. Cut-off read from the data, not from the text of the source: active = GI50 up to about 1.1 µM and inactive = higher.
Please state which outcome applies, choosing from Y = active, N = inactive

compound	group
CCNC1=Nc2ccc(Cl)cc2C(c2ccccc2)=NN1	N
CCOC(=O)C1=C(C)N(CC(C)C)C2(O)C(OC)CC(=O)C3C(=O)N(c4ccccc4)C(=O)C132 (centres undefined)	N
c1ccc2c(c1)nc1n2CCNC1	N

Qu. Given `Cn1c(=O)c2nc3nnc(C#N)c(N)n3c2n(C)c1=O` , state the outcome it received in this test.
Ans. N

Qu. Given ON=C1CCC(c2ccccc2)CC1 (centres undefined) , state the outcome it received in this test.
Ans. N

Qu. Given `CC(=O)O[C@H]1C#C/C=C\C#CC[C@@H]2C(=O)N[C@@H]12` , state the outcome it received in this test.
Ans. N

Qu. Given `O=C(O)/C(=C/c1ccccc1)c1ccccc1` , state the outcome it received in this test.
Ans. N

Qu. Given C=CCN1C(=O)/C(=C/c2ccc(C)cc2)N=C1SC1OC(COC(C)=O)C(OC(C)=O)C(OC(C)=O)C1OC(C)=O (centres undefined) , state the outcome it received in this test.
Ans. N

Qu. Given `O=C(Nc1ccc(Nc2ccc(NC(=O)c3ccccc3)c3c2C(=O)c2ccccc2C3=O)c2c1C(=O)c1ccccc1C2=O)c1ccccc1` , state the outcome it received in this test.
Ans. N

Qu. Given `Cc1cc(N(CCOS(C)(=O)=O)CCOS(C)(=O)=O)ccc1/C=N/c1ccc(-c2csc(-c3ccc(Br)cc3)n2)cc1` , state the outcome it received in this test.
Ans. N

Qu. Given `O=[N+]([O-])c1ccc2c(c1)c1nn2CCCCOc2nn(c3ccc([N+](=O)[O-])cc23)CCCCO1` , state the outcome it received in this test.
Ans. N

Qu. Given `COc1ccc(CSCc2cc(OC)c(OC)c(OC)c2)cc1` , state the outcome it received in this test.
Ans. N

Qu. Given COC(=O)c1ccccc1C1CN=NC12Cc1ccccc1C2=O (centres undefined) , state the outcome it received in this test.
Ans. N

Qu. Given `COc1ccc(C(N)=O)cc1/N=N/N(C)C` , state the outcome it received in this test.
Ans. N

====

Tested on: A498
procedure-summary: NCI tumour cell line growth inhibition, 48 h
Calls of active or inactive are those of the source. Rule as the data show it: active = GI50 up to about 1.1 µM and inactive = higher.
Please state which outcome applies, choosing from YES = active, NO = inactive

compound	group
Nc1nc2ncn(CCO)c2c(=S)[nH]1	NO
Cc1cccc(C(C)(C)C)c1NC(=O)C(=O)C(c1cnc2ccccc2n1)[N+](=O)[O-] (stereo not given)	NO
CC1=C(C(=O)Nc2ccccc2C)C(c2ccc(C3C(C(=O)Nc4ccccc4C)=CNC=C3C(=O)Nc3ccccc3C)cc2)C(C(=O)Nc2ccccc2C)=C(C)N1	NO
COc1cc(OC)c(/C=C\c2cc(/C=C/c3c(OC)cc(OC)cc3OC)c3ccccc3[n+]2C)c(OC)c1	NO
COc1cc(/C=C/C(=O)Oc2ccccc2)ccc1C(=O)O/C=C/c1ccccc1	NO
COC(=O)C1=C(c2ccc3c(c2)OCO3)O[C@H](c2cc(OC)c(OC)c(OC)c2)[C@H]1COC(C)=O	YES

Alright, here's another compound for you.
Qu. Given CC(=O)Oc1ccc2c(c1)Oc1cc(C(C)=O)ccc1C21OC(=O)c2ccccc21 (stereo not given) , state the outcome it received in this test.
Ans. NO
